# system: human 11βHSD1 (Homo sapiens)
# Sequence (P28845 whole entry): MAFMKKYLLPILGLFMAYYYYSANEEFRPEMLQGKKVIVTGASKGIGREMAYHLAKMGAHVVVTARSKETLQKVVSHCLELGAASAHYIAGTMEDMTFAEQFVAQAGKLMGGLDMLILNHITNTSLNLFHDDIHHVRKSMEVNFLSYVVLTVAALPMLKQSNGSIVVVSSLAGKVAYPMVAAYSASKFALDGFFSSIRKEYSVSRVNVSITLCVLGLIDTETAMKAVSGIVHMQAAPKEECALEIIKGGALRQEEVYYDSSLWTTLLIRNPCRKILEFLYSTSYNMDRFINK
# protocol_notes: 11βHSD1 enzymatic assay, percentage of inhibition
# Type: biochemical
# conditions: inhibitor at 0.1 uM; 0.1 µM
measurement_type: % inh @ 0.1 uM (%)

Would you please look over these solved cases?
molecule="CC(O)c1cccc(NS(=O)(=O)c2ccc(-c3ccc(C#N)cc3)cc2)n1 (single isomer, unassigned; (-)) [2(−)]" measurement_type="% inh @ 0.1 uM" unit_info=% observed_measurement=53
molecule="CC(O)c1cccc(NS(=O)(=O)c2ccc(-c3ccc(C#N)cc3)cc2)n1 (single isomer, unassigned; (+)) [2(+)]" measurement_type="% inh @ 0.1 uM" unit_info=% observed_measurement=85

A = CCC(O)c1cccc(NS(=O)(=O)c2ccc(-c3ccc(C#N)cc3)cc2)n1 (single isomer, unassigned; (+)) [3(+)]
B = CCC(O)c1cccc(NS(=O)(=O)c2ccc(-c3ccc(C#N)cc3)cc2)n1 (single isomer, unassigned; (-)) [3(−)]
Exercise: Could you check which of A and B has a smaller value for % inh @ 0.1 uM? Pick one and reply with its label.
Key: B

###

# system: human 11βHSD1 (Homo sapiens)
measurement_type: Ki (nM)

molecule="Cc1cc(-c2ccc(C#N)cc2)ccc1S(=O)(=O)Nc1cccc(C(C)O)n1 (single isomer, unassigned; (+)) [4(+)]" measurement_type=Ki unit_info=nM observed_measurement=2.7
molecule="CCC(O)c1cccc(NS(=O)(=O)c2ccc(-c3ccc(C#N)cc3)cc2)n1 (single isomer, unassigned; (+)) [3(+)]" measurement_type=Ki unit_info=nM observed_measurement=5.19

A = Cc1cc(N)nc(NS(=O)(=O)c2cc(C)c(Cl)cc2F)c1
B = CCNc1cccc(NS(=O)(=O)c2ccc(-c3ccc(C#N)cc3)cc2)n1
Exercise: Determine, for A and B , which has the greater value of Ki. Lab log: write the label of the selected item as the result.
Key: B
(B: 4.8 nM, A: 2.8 nM)
